meta.source: patent US11939403B2

Would you mind telling me the reported bioavailability of each entry?
test: Oral bioavailability in mice; type: in vivo; details: mouse, in vivo, po, mice, oral, no inhibitors; read-out: Oral bioavailability, no inhib.
Square brackets hold non-standard residues; d marks the D form. Peptide text beside a SMILES is read from it. Gly(N-CH2-oxan-4-yl) = O=C(O)CNCC1CCOCC1; NCyclohexylmethylGly = O=C(O)CNCC1CCCCC1; NMeL = CN[C@@H](CC(C)C)C(=O)O; NMeA = CN[C@@H](C)C(=O)O; NEtG = CCNCC(=O)O
Answers are plain numbers, in %.

CCN1CC(=O)N[C@@H](CC(C)C)C(=O)N(C)[C@@H](C)C(=O)N[C@@H](CC(C)C)C(=O)N2CCC[C@@H]2C(=O)N(CC2CCOCC2)CC(=O)N[C@@H](CC(C)C)C(=O)N(C)[C@@H](C)C(=O)N[C@@H](C)C(=O)N2CCC[C@@H]2C1=O [Compound A03] (cyclo([NEtG]L[NMeA]L[dP][Gly(N-CH2-oxan-4-yl)]L[NMeA]A[dP]))	1

Hey, quick one: what's bioavailability for each of these?
1. CCN1CC(=O)N[C@@H](CC(C)C)C(=O)N2CCC[C@@H]2C(=O)N(C)[C@@H](CC(C)C)C(=O)N[C@@H](C)C(=O)N(CC2CCOCC2)CC(=O)N[C@@H](Cc2ccccc2)C(=O)N2CCC[C@@H]2C(=O)N(C)[C@@H](CC(C)C)C(=O)N[C@@H](C)C1=O [Compound B09] (cyclo(A[NEtG]L[dP][NMeL]A[Gly(N-CH2-oxan-4-yl)]F[dP][NMeL]))
2. CCN1CC(=O)N[C@@H](CC(C)C)C(=O)N(C)[C@@H](C)C(=O)N[C@@H](CC(C)C)C(=O)N2CCC[C@@H]2C(=O)N(CC2CCCCC2)CC(=O)N[C@@H](CC(C)C)C(=O)N(C)[C@@H](C)C(=O)N[C@@H](Cc2ccccc2)C(=O)N2CCC[C@@H]2C1=O [Compound A08] (cyclo(F[dP][NEtG]L[NMeA]L[dP][NCyclohexylmethylGly]L[NMeA]))
3. CCN1CC(=O)N[C@@H](CC(C)C)C(=O)N(C)[C@@H](C)C(=O)N[C@@H](CC(C)C)C(=O)N2CCC[C@@H]2C(=O)N(CC2CCOCC2)CC(=O)N[C@@H](CC(C)C)C(=O)N(C)[C@@H](C)C(=O)N[C@@H](Cc2ccccc2)C(=O)N2CCC[C@@H]2C1=O [Compound A09] (cyclo([NEtG]L[NMeA]L[dP][Gly(N-CH2-oxan-4-yl)]L[NMeA]F[dP]))

Reply text:
[0.7, 5, 2]

---

Would you mind telling me the reported efflux ratio at 10 μM of each entry?
molecular target: P-gp (Homo sapiens); experiment: in vitro; conditions: MDCK, P-gp R-value
Sequence (P08183 whole entry): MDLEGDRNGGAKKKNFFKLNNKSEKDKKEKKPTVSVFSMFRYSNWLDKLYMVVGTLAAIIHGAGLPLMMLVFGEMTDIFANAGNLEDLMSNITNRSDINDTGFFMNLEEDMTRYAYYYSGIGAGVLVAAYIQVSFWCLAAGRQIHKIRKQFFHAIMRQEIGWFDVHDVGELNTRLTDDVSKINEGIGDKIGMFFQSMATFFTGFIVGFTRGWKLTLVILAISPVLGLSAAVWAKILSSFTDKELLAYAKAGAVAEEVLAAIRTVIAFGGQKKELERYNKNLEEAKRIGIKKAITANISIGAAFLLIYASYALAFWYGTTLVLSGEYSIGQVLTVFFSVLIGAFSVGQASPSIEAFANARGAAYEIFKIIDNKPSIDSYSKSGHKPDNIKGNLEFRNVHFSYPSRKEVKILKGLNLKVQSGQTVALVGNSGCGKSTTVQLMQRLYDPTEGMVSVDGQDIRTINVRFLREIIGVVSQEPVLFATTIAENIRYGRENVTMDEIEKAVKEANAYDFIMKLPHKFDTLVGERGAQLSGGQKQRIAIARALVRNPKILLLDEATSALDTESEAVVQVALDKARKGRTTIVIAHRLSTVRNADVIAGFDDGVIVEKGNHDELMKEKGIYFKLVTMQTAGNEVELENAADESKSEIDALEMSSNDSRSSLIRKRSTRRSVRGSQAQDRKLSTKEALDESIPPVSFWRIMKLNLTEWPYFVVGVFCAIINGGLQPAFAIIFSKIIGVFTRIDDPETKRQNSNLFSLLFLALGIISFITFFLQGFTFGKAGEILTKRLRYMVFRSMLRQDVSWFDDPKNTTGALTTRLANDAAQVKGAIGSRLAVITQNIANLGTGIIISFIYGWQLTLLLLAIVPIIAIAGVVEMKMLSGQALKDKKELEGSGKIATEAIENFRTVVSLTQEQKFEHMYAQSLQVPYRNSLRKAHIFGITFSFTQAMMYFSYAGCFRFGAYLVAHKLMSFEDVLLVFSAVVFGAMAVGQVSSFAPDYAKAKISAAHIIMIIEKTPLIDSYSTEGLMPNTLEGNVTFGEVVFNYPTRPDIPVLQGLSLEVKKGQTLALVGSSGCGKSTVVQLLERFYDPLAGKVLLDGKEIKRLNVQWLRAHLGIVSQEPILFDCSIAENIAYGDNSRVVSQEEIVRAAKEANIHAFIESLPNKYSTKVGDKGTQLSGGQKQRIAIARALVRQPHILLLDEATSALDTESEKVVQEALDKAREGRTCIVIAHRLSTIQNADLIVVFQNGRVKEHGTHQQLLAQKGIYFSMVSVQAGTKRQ
Square brackets hold non-standard residues; d marks the D form. Peptide text beside a SMILES is read from it. Gly(N-CH2-oxan-4-yl) = O=C(O)CNCC1CCOCC1; NMeL = CN[C@@H](CC(C)C)C(=O)O; NMeA = CN[C@@H](C)C(=O)O; NEtG = CCNCC(=O)O
One number for each entry.

CCN1CC(=O)N[C@@H](CC(C)C)C(=O)N(C)[C@@H](C)C(=O)N[C@@H](CC(C)C)C(=O)N2CCC[C@@H]2C(=O)N(CC2CCOCC2)CC(=O)N[C@@H](CC(C)C)C(=O)N(C)[C@@H](C)C(=O)N[C@@H](Cc2ccccc2)C(=O)N2CCC[C@@H]2C1=O [Compound A09] (cyclo([NEtG]L[NMeA]L[dP][Gly(N-CH2-oxan-4-yl)]L[NMeA]F[dP]))	43

For each of the compounds below, note its efflux ratio at 10 μM.
1. CCN1CC(=O)N[C@@H](CC(C)C)C(=O)N(C)[C@@H](C)C(=O)N[C@@H](CC(C)C)C(=O)N2CCC[C@@H]2C(=O)N(CC2CCOCC2)CC(=O)N[C@@H](CC(C)C)C(=O)N(C)[C@@H](C)C(=O)N[C@@H](C)C(=O)N2CCC[C@@H]2C1=O [Compound A03] (cyclo([NEtG]L[NMeA]L[dP][Gly(N-CH2-oxan-4-yl)]L[NMeA]A[dP]))
2. CCN1CC(=O)N[C@@H](CC(C)C)C(=O)N2CCC[C@@H]2C(=O)N(C)[C@@H](CC(C)C)C(=O)N[C@@H](C)C(=O)N(CC2CCOCC2)CC(=O)N[C@@H](C)C(=O)N2CCC[C@@H]2C(=O)N(C)[C@@H](CC(C)C)C(=O)N[C@@H](C)C1=O [Compound B03] (cyclo(A[NEtG]L[dP][NMeL]A[Gly(N-CH2-oxan-4-yl)]A[dP][NMeL]))

Reply text:
1. 6
2. 1.4

---

So I've got a bunch of compounds here, and I need their bioavailability values.
experiment: Oral bioavailability in mice; format: in vivo; details: mouse, in vivo, po, mice, oral, pretreatment with 1-aminobenztriazole (CYP inhibitor); read-out: Oral bioavailability, +CYP inhib.
Square brackets hold non-standard residues; d marks the D form. Peptide text beside a SMILES is read from it. Gly(N-CH2-oxan-4-yl) = O=C(O)CNCC1CCOCC1; NCyclohexylmethylGly = O=C(O)CNCC1CCCCC1; NMeL = CN[C@@H](CC(C)C)C(=O)O; NMeA = CN[C@@H](C)C(=O)O; NEtG = CCNCC(=O)O
One number for each entry, in %.

Example entries begin here.
CCN1CC(=O)N[C@@H](CC(C)C)C(=O)N(C)[C@@H](C)C(=O)N[C@@H](CC(C)C)C(=O)N2CCC[C@@H]2C(=O)N(CC2CCCCC2)CC(=O)N[C@@H](CC(C)C)C(=O)N(C)[C@@H](C)C(=O)N[C@@H](Cc2ccccc2)C(=O)N2CCC[C@@H]2C1=O [Compound A08] (cyclo(F[dP][NEtG]L[NMeA]L[dP][NCyclohexylmethylGly]L[NMeA]))	31
CCN1CC(=O)N[C@@H](CC(C)C)C(=O)N2CCC[C@@H]2C(=O)N(C)[C@@H](CC(C)C)C(=O)N[C@@H](C)C(=O)N(CC2CCOCC2)CC(=O)N[C@@H](Cc2ccccc2)C(=O)N2CCC[C@@H]2C(=O)N(C)[C@@H](CC(C)C)C(=O)N[C@@H](C)C1=O [Compound B09] (cyclo(A[NEtG]L[dP][NMeL]A[Gly(N-CH2-oxan-4-yl)]F[dP][NMeL]))	1.5
CCN1CC(=O)N[C@@H](CC(C)C)C(=O)N(C)[C@@H](C)C(=O)N[C@@H](CC(C)C)C(=O)N2CCC[C@@H]2C(=O)N(CC2CCOCC2)CC(=O)N[C@@H](CC(C)C)C(=O)N(C)[C@@H](C)C(=O)N[C@@H](Cc2ccccc2)C(=O)N2CCC[C@@H]2C1=O [Compound A09] (cyclo([NEtG]L[NMeA]L[dP][Gly(N-CH2-oxan-4-yl)]L[NMeA]F[dP]))	5

Now let's try a different one.
Inquiry: Quick one: bioavailability for CCN1CC(=O)N[C@@H](CC(C)C)C(=O)N(C)[C@@H](C)C(=O)N[C@@H](CC(C)C)C(=O)N2CCC[C@@H]2C(=O)N(CC2CCOCC2)CC(=O)N[C@@H](CC(C)C)C(=O)N(C)[C@@H](C)C(=O)N[C@@H](C)C(=O)N2CCC[C@@H]2C1=O [Compound A03] (cyclo([NEtG]L[NMeA]L[dP][Gly(N-CH2-oxan-4-yl)]L[NMeA]A[dP])) ?
Reply text: 2

---

assay: Oral bioavailability in mice; type: in vivo; conditions: mouse, in vivo, po, mice, oral, pretreatment with 1-aminobenztriazole and GF120918; read-out: Oral bioavailability, +CYP inhib. +P-gp inhib.
Square brackets hold non-standard residues; d marks the D form. Peptide text beside a SMILES is read from it. Gly(N-CH2-oxan-4-yl) = O=C(O)CNCC1CCOCC1; NCyclohexylmethylGly = O=C(O)CNCC1CCCCC1; NMeA = CN[C@@H](C)C(=O)O; NEtG = CCNCC(=O)O
Give measured bioavailability for each item. Keep answers brief.
Give bare numbers, in %.

CCN1CC(=O)N[C@@H](CC(C)C)C(=O)N(C)[C@@H](C)C(=O)N[C@@H](CC(C)C)C(=O)N2CCC[C@@H]2C(=O)N(CC2CCOCC2)CC(=O)N[C@@H](CC(C)C)C(=O)N(C)[C@@H](C)C(=O)N[C@@H](C)C(=O)N2CCC[C@@H]2C1=O [Compound A03] (cyclo([NEtG]L[NMeA]L[dP][Gly(N-CH2-oxan-4-yl)]L[NMeA]A[dP]))	39

Inquiry: What does the data say about its bioavailability? Entry: CCN1CC(=O)N[C@@H](CC(C)C)C(=O)N(C)[C@@H](C)C(=O)N[C@@H](CC(C)C)C(=O)N2CCC[C@@H]2C(=O)N(CC2CCCCC2)CC(=O)N[C@@H](CC(C)C)C(=O)N(C)[C@@H](C)C(=O)N[C@@H](Cc2ccccc2)C(=O)N2CCC[C@@H]2C1=O [Compound A08] (cyclo(F[dP][NEtG]L[NMeA]L[dP][NCyclohexylmethylGly]L[NMeA]))
Reply text: 59
